System: NCI/ADR-RES ovarian
Experiment: NCI-60 one-dose screen, 48 h (100 = growth as untreated, 0 = no growth, -100 = all killed)
Conditions: 10 µM unless noted
This is part of a sample that, as a whole, favours compounds with a hit. Of some 83,000 tested, about 20% had one in any assay.
Listing: growth of selected molecules
Reply numerically in %, unit not repeated.

IN: What growth value was documented for this molecule, COC(=O)C1=C(C(=O)ON)[C@@H]2C=C[C@@]1([C@@H](Cc1ccccc1)Nc1ccccc1)O2 ?
OUT: 89.8

IN: What growth value was documented for this molecule, NS(=O)(=O)c1ccc(CCN2C(=O)c3cc(Cl)c(Cl)cc3C2=O)cc1 ?
OUT: 105

IN: What growth value was documented for this molecule, C/C(=N\NC(=O)CSc1nc2ccccc2c(=O)n1CCc1ccc(S(N)(=O)=O)cc1)c1ccccn1 ?
OUT: 74.4

IN: What growth value was documented for this molecule, CCN(CC)c1ccc(/C=N/NC(=O)CSc2nc3ccccc3c(=O)n2CCc2ccc(S(N)(=O)=O)cc2)c(O)c1 ?
OUT: 82.6

IN: What growth value was documented for this molecule, C=C(C)[C@@H]1CC[C@]2(CN)CC[C@]3(C)[C@H](CC[C@@H]4[C@@]5(C)CCCNC(C)(C)[C@@H]5CC[C@]43C)[C@@H]12 ?
OUT: -52

IN: What growth value was documented for this molecule, O=C(NNc1nc2c(F)cccc2n2cccc12)c1cnccn1 ?
OUT: 3.12

IN: What growth value was documented for this molecule, CCNC(=O)Oc1ccc(/C(=C(\C)c2ccccc2)c2ccc(OCCN3CCCCC3)cc2)cc1 ?
OUT: 66.8

###

Test system: HCC-2998 colon
Experiment: NCI-60 one-dose screen, 48 h
Conditions: 10 µM unless noted
About 83,000 compounds went through this panel and 20% of them were active in at least one assay; those are over-represented in the sample as a whole. Calls of active or inactive are those of the source. Rule for the calls: active = growth percent below 10; inactive = the rest.
Hi there, use one of these labels in your reply, thanks! active, inactive

| compound | label |
| --- | --- |
| NC(=NCc1ccccc1)C(N=Nc1ccccc1)C(=O)NCc1ccccc1 (stereo not drawn) | inactive |
| O=C1c2ccc3c4c(ccc(c24)C(=O)N1CCCNCc1ccccc1F)C(=O)N(CCCNCc1ccccc1F)C3=O | active |
| C#CCNC(=O)c1cccc2c1cc(C)n2-c1nc2c(c(NCc3ccccc3)n1)CCCC2 | active |
| O=C1c2cccc3c(-c4ccc5c(c4)ncn5C4CCCCC4)ccc(c23)C(=O)N1c1nc2ccccc2s1 | inactive |
| COc1ccccc1/C=C1\Oc2cc(OCCN3CCCC3)ccc2C1=O | inactive |
| OCc1cnccc1NCCCOc1ccccc1 | inactive |
| Cc1ccc(C(=O)/C(=C\c2ccc([N+](=O)[O-])cc2)S(=O)Cc2ccc(F)cc2)cc1 (stereo not drawn) | inactive |
| O=S(=O)(NCCCNc1nccc(-c2c(-c3cccc(F)c3)nc3sccn23)n1)c1cccc2ccccc12 | inactive |
| CC1(C)CC[C@]2(C(=O)O)CC[C@]3(C)C(=CC[C@@H]4[C@@]5(C)Cc6c([nH]c7ccccc67)C(C)(C)[C@@H]5CC[C@]43C)[C@@H]2C1 | inactive |
| N#CC1=C(N)Oc2c(ccc3ccccc23)C1c1ccccc1Cl (stereo not drawn) | inactive |

IN: Record request — test call for N#Cc1c(NCc2ccccc2I)sc2c1CCCCC2
OUT: inactive

IN: Record request — test call for Cn1cc(CC2CC(=O)N(c3ccccc3)C2=O)sc1=NC(=O)c1ccccc1 (stereo not drawn)
OUT: inactive

IN: Record request — test call for C#Cc1cccc(NC(=O)Nc2cccc(NC(=O)CCl)c2)c1
OUT: inactive

IN: Record request — test call for O=[N+]([O-])c1ccc(NC(=S)N/N=C/c2cc3ccccc3n3nnnc23)cc1
OUT: inactive

IN: Record request — test call for N#Cc1c(NC(=O)NCc2ccccc2)sc2c1CCCCC2
OUT: inactive

IN: Record request — test call for COc1cc(CC(=O)n2ncc3ccc(N)cc32)cc(OC)c1OC
OUT: inactive
